A collection of compounds and their measured EC50
Biological target: glucokinase (GK) (Homo sapiens, UniProt P35557)
Construct: I.D. No. 1 corresponds to residues 13-466 of glucokinase
Sequence (P35557 with tags, fused parts or gaps isoform P35557-2): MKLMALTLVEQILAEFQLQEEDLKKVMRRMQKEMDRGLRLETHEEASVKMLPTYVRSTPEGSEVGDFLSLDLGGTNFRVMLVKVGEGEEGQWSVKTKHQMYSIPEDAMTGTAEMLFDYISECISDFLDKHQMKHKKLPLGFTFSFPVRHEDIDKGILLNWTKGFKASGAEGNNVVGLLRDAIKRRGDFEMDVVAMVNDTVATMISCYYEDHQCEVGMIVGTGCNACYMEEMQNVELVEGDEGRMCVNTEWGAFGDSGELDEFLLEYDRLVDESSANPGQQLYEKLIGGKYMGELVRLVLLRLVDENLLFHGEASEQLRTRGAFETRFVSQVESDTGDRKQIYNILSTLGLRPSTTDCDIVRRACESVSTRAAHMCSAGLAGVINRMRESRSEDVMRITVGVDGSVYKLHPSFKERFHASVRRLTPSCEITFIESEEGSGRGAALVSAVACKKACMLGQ
Assay: enzymatic glucokinase activity assay (ATP consumption, KinaseGlo luminescence)
Details: recombinant GK; 5 μM ATP, 5 mM Glucose, 2% DMSO, 60 min at room temperature; Kact = concentration giving 50% of the maximal increase in GK activity; read-out: pKact
Text: The activity of compounds as glucokinase activators may be assayed in vitro, in vivo or in a cell line. Provided below is an enzymatic glucokinase activity assay. Purified glucokinase may be obtained as follows. […] Recombinant protein may be isolated from cellular extracts by passage over Sepharose Q Fast Flow resin (Pharmacia). […] The purity of GK may be determined on denaturing SDS-PAGE gel. […]
Quantity Measured: EC50

{"Molecule": "c1ccc(-c2cc(-c3cccc4c3OCC4)[nH]n2)cc1", "Recorded Value": "2510 to 3980 nM"}
{"Molecule": "COc1ccccc1-c1nc(SCC(=O)c2ccc(O)c(O)c2)n[nH]1", "Recorded Value": "2510 to 3980 nM"}
{"Molecule": "COc1cc(-c2cc(OCc3ccccc3C)cc(Oc3ccc(S(C)(=O)=O)cc3)c2)[nH]n1", "Recorded Value": "≤ 2000 nM"}
{"Molecule": "COCCNc1ccc(-c2cc(-c3ccccc3OC)[nH]n2)cn1", "Recorded Value": "2510 to 3980 nM"}
{"Molecule": "COc1ccc(NS(=O)(=O)c2ccccc2)cc1-c1cc(-c2ccccc2)n[nH]1", "Recorded Value": "2510 to 3980 nM"}
{"Molecule": "COc1ccccc1-c1cc(OCc2ccccc2F)n[nH]1", "Recorded Value": "≥ 5010 nM"}
{"Molecule": "COc1ccc(F)cc1-c1cc(-c2cccc(F)c2)[nH]n1", "Recorded Value": "2510 to 3980 nM"}
{"Molecule": "COc1ccccc1-c1cc(-c2cccc(NC(C)=O)c2)n[nH]1", "Recorded Value": "≥ 5010 nM"}
{"Molecule": "FC(F)(F)COc1ccc(OCC(F)(F)F)c(-c2ccn[nH]2)c1", "Recorded Value": "≤ 2000 nM"}
{"Molecule": "COc1ccccc1-c1nnc(SCC(=O)Nc2ccccc2[N+](=O)[O-])[nH]1", "Recorded Value": "≤ 2000 nM"}
{"Molecule": "Brc1cc2c(c(-c3cc(-c4ccccc4)n[nH]3)c1)OCC2", "Recorded Value": "≥ 5010 nM"}
{"Molecule": "COc1ccccc1-c1cc(-c2ccc(N)cc2)n[nH]1", "Recorded Value": "≥ 5010 nM"}
{"Molecule": "CC1(C)Cc2cccc(-c3cc(-c4ccccc4)n[nH]3)c2O1", "Recorded Value": "≤ 2000 nM"}
{"Molecule": "COc1cc(NC(=O)c2ccccc2)ccc1-c1cc(-c2ccccc2)n[nH]1", "Recorded Value": "≤ 2000 nM"}
{"Molecule": "COc1cc(-c2cc(OCc3ccccc3F)cc(Oc3ccc(S(C)(=O)=O)cc3)c2)[nH]n1", "Recorded Value": "≤ 2000 nM"}
{"Molecule": "c1ccc(COc2ccc(-c3cc(-c4ccccc4)n[nH]3)c(OCc3ccccn3)c2)cc1", "Recorded Value": "≤ 2000 nM"}
{"Molecule": "CS(=O)(=O)c1ccc(Oc2cc(OCc3ccccc3F)cc(-c3cc(O)n[nH]3)c2)cc1", "Recorded Value": "≥ 5010 nM"}
{"Molecule": "COc1ccccc1-c1cc(-c2cccc(C#N)c2)n[nH]1", "Recorded Value": "2510 to 3980 nM"}
{"Molecule": "COc1cc(OCc2ccccc2)ccc1-c1cc(-c2ccc(F)cc2)n[nH]1", "Recorded Value": "≤ 2000 nM"}
{"Molecule": "COc1ccccc1-c1cc(-c2ccc(F)cc2)n[nH]1", "Recorded Value": "2510 to 3980 nM"}
{"Molecule": "COc1ccc(COc2ccc(-c3cc(-c4ccccc4)n[nH]3)c(OC)c2)cc1", "Recorded Value": "2510 to 3980 nM"}
{"Molecule": "COc1ccc(NC(=O)c2ccccc2)cc1-c1cc(-c2ccccc2)n[nH]1", "Recorded Value": "2510 to 3980 nM"}

====

Biological target: glucokinase (GK) (Homo sapiens)
Construct: I.D. No. 1 corresponds to residues 13-466 of glucokinase
Sequence (P35557 with tags, fused parts or gaps isoform P35557-2): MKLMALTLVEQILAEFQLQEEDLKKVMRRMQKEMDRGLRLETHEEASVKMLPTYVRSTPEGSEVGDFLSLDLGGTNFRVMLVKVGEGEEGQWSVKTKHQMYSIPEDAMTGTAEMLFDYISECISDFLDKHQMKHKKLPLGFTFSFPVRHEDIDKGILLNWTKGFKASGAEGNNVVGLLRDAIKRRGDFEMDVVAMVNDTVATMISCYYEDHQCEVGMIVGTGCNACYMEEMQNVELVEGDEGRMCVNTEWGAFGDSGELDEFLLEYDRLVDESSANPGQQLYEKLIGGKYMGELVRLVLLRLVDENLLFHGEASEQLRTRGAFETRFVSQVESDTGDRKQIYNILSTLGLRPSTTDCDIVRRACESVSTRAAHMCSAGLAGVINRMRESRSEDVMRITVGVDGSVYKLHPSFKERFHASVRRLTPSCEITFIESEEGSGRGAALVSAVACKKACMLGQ
Experiment: enzymatic glucokinase activity assay (ATP consumption, KinaseGlo luminescence)
Details: recombinant GK; 5 μM ATP, 5 mM Glucose, 2% DMSO, 60 min at room temperature; Kact = concentration giving 50% of the maximal increase in GK activity; read-out: pKact
From the text: The activity of compounds as glucokinase activators may be assayed in vitro, in vivo or in a cell line. Provided below is an enzymatic glucokinase activity assay. Purified glucokinase may be obtained as follows. […] Recombinant protein may be isolated from cellular extracts by passage over Sepharose Q Fast Flow resin (Pharmacia). […] The purity of GK may be determined on denaturing SDS-PAGE gel. […]
The entries below come with measured EC50 values attached.

{"Molecule": "COc1cc(-c2cc(OCc3ncccc3C)cc(Oc3ccc(S(C)(=O)=O)cc3)c2)[nH]n1", "EC50": "≤ 2000 nM"}
{"Molecule": "COC[C@H](C)Oc1cc(OCc2ccc(S(C)(=O)=O)cc2)cc(-c2cc(OC)n[nH]2)c1", "EC50": "2510 to 3980 nM"}
{"Molecule": "COc1ccccc1-c1cc(-c2ccc(C#N)cc2)n[nH]1", "EC50": "2510 to 3980 nM"}
{"Molecule": "Cc1ccccc1COc1cc(Oc2ccc(S(C)(=O)=O)cc2)cc(-c2cc(O)n[nH]2)c1", "EC50": "≥ 5010 nM"}
{"Molecule": "COC[C@H](C)Oc1cc(OCCc2ccsc2)cc(-c2cc(OC)n[nH]2)c1", "EC50": "≤ 2000 nM"}
{"Molecule": "Clc1cccc(Oc2ccccc2-c2cc(-c3cccnc3)n[nH]2)c1", "EC50": "2510 to 3980 nM"}
{"Molecule": "COc1ccccc1-c1cc(-c2ccc(N(C)C)nc2)n[nH]1", "EC50": "2510 to 3980 nM"}
{"Molecule": "COc1ccccc1-c1cc(-c2ccc(N3CCOCC3)nc2)n[nH]1", "EC50": "≥ 5010 nM"}
{"Molecule": "COc1ccccc1-c1nnc(SCC(=O)Nc2ccc(C)c(C)c2)[nH]1", "EC50": "≤ 2000 nM"}
{"Molecule": "COc1ccccc1-c1nc(SCC(=O)N2CCOCC2)n[nH]1", "EC50": "≤ 2000 nM"}

====

Target: glucokinase (GK) (Homo sapiens, UniProt P35557)
Construct: I.D. No. 1 corresponds to residues 13-466 of glucokinase
Assay: enzymatic glucokinase activity assay (ATP consumption, KinaseGlo luminescence)
Conditions: recombinant GK; 5 μM ATP, 5 mM Glucose, 2% DMSO, 60 min at room temperature; Kact = concentration giving 50% of the maximal increase in GK activity; read-out: pKact
pEC50: −log10 of the molar value.
Quantity Measured: pEC50

{"Molecule": "c1ccc(-c2cc(-c3ccccc3OCc3ccccn3)[nH]n2)cc1", "Recorded Value": "5.40 to 5.60"}
{"Molecule": "COC[C@H](C)Oc1cc(OCc2ccccc2F)cc(-c2cc(OC)n[nH]2)c1", "Recorded Value": "≤ 5.30"}
{"Molecule": "COc1ccccc1-c1cc(-c2ccccc2)n[nH]1", "Recorded Value": "5.40 to 5.60"}
{"Molecule": "COc1ccc(CNc2ccc(-c3cc(-c4ccccc4OC)[nH]n3)cn2)c(OC)c1", "Recorded Value": "≥ 5.70"}
{"Molecule": "Cc1cccnc1COc1cc(Oc2ccc(S(C)(=O)=O)cc2)cc(-c2cc(O)n[nH]2)c1", "Recorded Value": "≤ 5.30"}
{"Molecule": "COC[C@H](C)Oc1cc(Oc2ccc(S(C)(=O)=O)cc2)cc(-c2cc(OCC(=O)OC)n[nH]2)c1", "Recorded Value": "5.40 to 5.60"}
{"Molecule": "Fc1ccc(-c2cc(-c3ccccc3Oc3ccccc3)[nH]n2)cc1", "Recorded Value": "5.40 to 5.60"}
{"Molecule": "COc1ccc(NC(=O)c2ccoc2)cc1-c1cc(-c2ccccc2)n[nH]1", "Recorded Value": "5.40 to 5.60"}
{"Molecule": "COc1ccccc1-c1cc(-c2cccc(N)c2)n[nH]1", "Recorded Value": "5.40 to 5.60"}
{"Molecule": "Fc1ccc(-c2cc(-c3cccc(Oc4ccccc4)c3)[nH]n2)cc1", "Recorded Value": "≥ 5.70"}
{"Molecule": "COc1ccccc1-c1cc(-c2cccc(NC(=O)c3ccccc3)c2)n[nH]1", "Recorded Value": "5.40 to 5.60"}
{"Molecule": "COc1ccc(NC(=O)c2cncs2)cc1-c1cc(-c2ccccc2)n[nH]1", "Recorded Value": "≤ 5.30"}
{"Molecule": "Fc1ccccc1CSc1n[nH]c(-c2ccccc2OCc2ccccc2)n1", "Recorded Value": "≥ 5.70"}
{"Molecule": "Fc1ccccc1COc1cc(-c2cccc3c2OCC3)[nH]n1", "Recorded Value": "≤ 5.30"}
{"Molecule": "COc1cc(-c2cc(Oc3ccc(S(C)(=O)=O)cc3)cc(OC3CCCC3)c2)[nH]n1", "Recorded Value": "≥ 5.70"}
{"Molecule": "COc1ccccc1-c1cc(-c2ccccc2Cl)n[nH]1", "Recorded Value": "5.40 to 5.60"}
{"Molecule": "Fc1ccc(-c2cc(-c3cccc(Oc4ncccn4)c3)[nH]n2)cc1", "Recorded Value": "≤ 5.30"}
{"Molecule": "COc1ccc(NCc2ccccc2)cc1-c1cc(-c2ccccc2)n[nH]1", "Recorded Value": "≤ 5.30"}
